Test system: Aβ40
Experiment: Screen of NIH clinical collection compounds for reduction of Aβ40 in Tg2576 mES cell derived neurons (Aβ40 ELISA)
Assay type: cell-based, mouse
Details: Mus musculus, Neuron
Description: In certain embodiments, the inhibitor of the present invention is identified by an assay directed to detecting inhibitors of Aβ40 production. For example, but not by way of limitation, such assays can include assays such as those prepared as follows. […] In certain embodiments, conditioned media can be subjected to Aβ40 quantification, e.g., by using Aβ40 ELISA (Invitrogen). Mouse ES cells isolated from. […] Conditioned media was subjected to Aβ40 quantification using Aβ40 ELISA (Invitrogen). […]
Quantity Kind: IC50 (µM)

Smiles Repr: COc1ccc(-c2oc3c(CC=C(C)C)c(O[C@@H]4O[C@H](CO)[C@@H](O)[C@H](O)[C@H]4O)cc(O)c3c(=O)c2O[C@@H]2O[C@@H](C)[C@H](O)[C@@H](O)[C@H]2O)cc1
Target Of Assay: Aβ40
Unit Of Measurement: µM
Endpoint Result: 5.1

* * *

Recorded IC50, one value per entry.
Tested on: Aβ40
Test: Aβ40 detection by human specific ELISA in conditioned medium of Tg2576 mES cell derived neurons
Type: cell-based, mouse
Details: optimized 96 well platform, 24 hours
Quantity Kind: IC50 (nM)

Compound: C[C@H](NC(=O)Cc1cc(F)cc(F)c1)C(=O)N[C@H]1N=C(c2ccccc2)c2ccccc2N(C)C1=O [Compound E]
Quantity Kind: IC50
Endpoint Result: 0.2

Compound: C[C@@H](NC(=O)c1cc(C(=O)N[C@@H](Cc2ccccc2)[C@H](O)CNC2CC2)cc(N(C)S(C)(=O)=O)c1)c1ccccc1 [BACE inhibitor]
Quantity Kind: IC50
Endpoint Result: 44.7

* * *

Test system: Aβ42
Test: Aβ42 detection by human specific ELISA in conditioned medium of Tg2576 mES cell derived neurons
Format: cell-based, mouse
Conditions: optimized 96 well platform, 24 hours
pIC50: −log10 of the molar value.
Reported pIC50 by item:

Molecule: C[C@@H](NC(=O)c1cc(C(=O)N[C@@H](Cc2ccccc2)[C@H](O)CNC2CC2)cc(N(C)S(C)(=O)=O)c1)c1ccccc1 [BACE inhibitor]
Target Of Assay: Aβ42
pIC50: 8.11
//
Molecule: C[C@H](NC(=O)Cc1cc(F)cc(F)c1)C(=O)N[C@H]1N=C(c2ccccc2)c2ccccc2N(C)C1=O [Compound E]
Target Of Assay: Aβ42
pIC50: 9.70
